Tested on: KASUMI-2;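 also: ALL cell lines in 384-well plates, five doses spanning 10,000-fold, each plate scaled between vehicle and 100 µmol/L benzalkonium chloride controls, sDSS an adapted area-under-curve metric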
method.notes: selective drug sensitivity score (sDSS, relative to normal bone marrow) (sDSS (score)); higher = more potent and effective on the cell line relative to normal bone marrow cells
settings: 72 h
Categorize each record by its selective drug sensitivity score using b0: < 0; b1: ≥ 0 and < 4; b2: ≥ 4

Past entries and their recorded results:
* Cn1cncc1[C@@](N)(c1ccc(Cl)cc1)c1ccc2c(c1)c(-c1cccc(Cl)c1)cc(=O)n2C [Tipifarnib] (top concentration 10000 nM) | b0
* CN1CCC(COc2cnc(-c3cccc(Cn4nc(-c5cccc(C#N)c5)ccc4=O)c3)nc2)CC1 [Tepotinib] (top concentration 1000 nM) | b1
* CCc1cc2c(cc1N1CCC(N3CCOCC3)CC1)C(C)(C)c1[nH]c3cc(C#N)ccc3c1C2=O [Alectinib] (top concentration 1000 nM) | b1
* NS(=O)(=O)OC[C@@H]1C[C@@H](n2ccc3c(N[C@H]4CCc5ccccc54)ncnc32)C[C@@H]1O [Pevonedistat] (top concentration 10000 nM) | b2
* Cc1cc2c(C(=O)NC[C@H](C)c3ccccc3)c(O)c(O)cc2c(O)c1-c1c(C)cc2c(C(=O)NC[C@H](C)c3ccccc3)c(O)c(O)cc2c1O [Sabutoclax] (top concentration 25000 nM) | b2
* O=C1c2c(O)ccc(O)c2C(=O)c2c(NCCNCCO)ccc(NCCNCCO)c21 [Mitoxantrone] (top concentration 1000 nM) | b2

For this compound, which bin applies? CC(C)C(=O)Nc1ccc([N+](=O)[O-])c(C(F)(F)F)c1 [Flutamide] (top concentration 10000 nM)
b1

For this compound, which bin applies? Oc1ccc2c(c1)CC[C@H](c1ccccc1)[C@@H]2c1ccc(OCCN2CCCC2)cc1 [Lasofoxifene] (top concentration 1000 nM)
b0

For this compound, which bin applies? COc1cc(N2CCC(N3CCN(C)CC3)CC2)ccc1Nc1ncc(Cl)c(Nc2ccccc2P(C)(C)=O)n1 [Brigatinib] (top concentration 1000 nM)
b0

For this compound, which bin applies? CC(=O)Nc1cccc(-n2c(=O)n(C3CC3)c(=O)c3c(Nc4ccc(I)cc4F)n(C)c(=O)c(C)c32)c1 [Trametinib] (top concentration 250 nM)
b2

For this compound, which bin applies? Cc1ccc(C(=O)N(CCCN)[C@@H](c2oc3cc(Cl)ccc3c(=O)c2Cc2ccccc2)C(C)C)cc1 (top concentration 100 nM)
b1
